Data origin, for the record: ChEMBL document CHEMBL2069165

SUBJECT OF TEST: Induced myeloid leukemia cell differentiation protein Mcl-1/Bcl-2-like protein 11 (Homo sapiens) (UniProt Q07820+O43521)
Sequence (O43521 whole entry, looked up, the tested form may be a part): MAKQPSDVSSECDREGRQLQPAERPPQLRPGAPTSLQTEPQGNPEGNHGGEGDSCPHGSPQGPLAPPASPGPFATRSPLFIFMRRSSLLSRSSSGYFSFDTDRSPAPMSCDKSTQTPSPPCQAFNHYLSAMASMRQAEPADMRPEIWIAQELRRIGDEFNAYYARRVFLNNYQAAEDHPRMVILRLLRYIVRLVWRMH
Sequence (Q07820 whole entry, looked up, the tested form may be a part): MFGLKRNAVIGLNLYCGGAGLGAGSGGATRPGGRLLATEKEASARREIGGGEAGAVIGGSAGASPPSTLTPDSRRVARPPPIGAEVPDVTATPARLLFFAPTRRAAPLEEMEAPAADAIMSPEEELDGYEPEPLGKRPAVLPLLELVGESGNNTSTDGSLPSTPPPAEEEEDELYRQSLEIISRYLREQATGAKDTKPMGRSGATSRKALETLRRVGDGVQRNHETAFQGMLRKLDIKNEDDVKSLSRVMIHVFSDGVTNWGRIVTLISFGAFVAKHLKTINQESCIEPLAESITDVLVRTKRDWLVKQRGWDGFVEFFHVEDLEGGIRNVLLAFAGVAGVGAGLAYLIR
MEASUREMENT PROTOCOL: Inhibition of GST-Mcl-1/BH3 domain of Bim interaction at 25 uM after 1 hr by ELISA
Format: protein assay
MEASURED ENDPOINT: inhibition (%)

See these solved cases before continuing.
| COMPOUND | UNIT INFO | inhibition |
| --- | --- | --- |
| COCOC[C@@]12C=C[C@@H](C(C)(C)C(=O)OC)C[C@@H]1C=C(C)C[C@@H]2OC(=O)NC1CCCCC1 | % | 34.8 |
| C=C(C)CNC(=O)C(C)(C)[C@@H]1C=C[C@@]2(COCOC)[C@@H](OC(=O)NC3CCCC3)CC(C)=C[C@H]2C1 (relative stereo) | % | 19.7 |
| COCOC[C@@]12C=C[C@@H](C(C)(C)C(=O)N3CCOCC3)C[C@@H]1C=C(C)C[C@@H]2OC(=O)NC1CCCCC1 (relative stereo) | % | 26.5 |
| C=C(C)CNC(=O)C(C)(C)[C@@H]1C=C[C@@]2(COCOC)[C@@H](OC(=O)NCc3ccccc3)CC(C)=C[C@H]2C1 (relative stereo) | % | 40.3 |
| COCOC[C@@]12C=C[C@@H](C(C)(C)C(=O)OCc3ccccc3)C[C@@H]1C=C(C)C[C@@H]2OCc1ccccc1 | % | 64.9 |

1. C=C(C)CNC(=O)C(C)(C)[C@@H]1C=C[C@@]2(COCOC)[C@@H](O)CC(C)=C[C@H]2C1
2. COCOC[C@@]12C=C[C@@H](C(C)(C)C(=O)NCc3ccccc3)C[C@@H]1C=C(C)C[C@@H]2OC(=O)NC1CCCCC1 (relative stereo)
3. COC(=O)C(C)(C)[C@@H]1C=C[C@@]2(CO)[C@@H](O)CC(C)=C[C@H]2C1
Task field, ranking: reported inhibition, descending order. List the labels according to the requested ordering.
2, 3, 1
